Recorded values, source the DeepSol protein solubility set.

Assay: soluble on expression in E. coli; label from the status in PepcDB or PDB records
RECORDED METRIC: soluble on expression in E. coli

POLYMER SEQUENCE	RESULT
MSGVSLGRGQNANAAYLDNIKELGFKLVRRPTGGGALLHPEDNEITYSVVLSASNTIAKLSVDESAVEIAKGILYTLQILGENVDIRGLGDMKKHDLCYLRSGSSDVIVAGRKISGSAQVRDDKALLQHGTLLLRFEPEI	soluble
MSNVSSETVNLNNTSIVHMNMSNVTKLTASNYIMWSRQVHALLHGYGLTQYLDATKAAPAREITVNDVASVNPEYEAWSRQDQLIFSALIGTLSLTVQPTVSRAATSADVWATLAGTYAKPSRGHIKQLQHQIKQWKKDTRTIDEYVQGFINRFDQLALIGKIIDHEDQVDYILGGLPEDYKPIVDQMEGRDTPPNGCLTNSCDEDGCFIQMALNSV	soluble
